# subject-of-test: T1, bacterially produced human IL-6 (Homo sapiens, UniProt P05231)
# T1 construct: His
# test-summary: Surface plasmon resonance (Biacore), bacterially produced human IL-6 coated on CM5 chip
# Type: binding
# condition-set: bact; periplasmic fractions, 29B11 chain shuffled
measured-quantity: KA (M⁻¹)
Please reply with the bare figure in M⁻¹ and do not write the unit itself.

Sure, the documented KA for 55E2b: 29B11 chain shuffled Fab, periplasmic fraction (antibody, V domains shown) VH: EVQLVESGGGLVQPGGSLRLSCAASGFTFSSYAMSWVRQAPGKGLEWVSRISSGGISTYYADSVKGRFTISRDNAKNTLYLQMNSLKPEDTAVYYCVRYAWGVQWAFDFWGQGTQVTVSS VL: AQSVLTQPPSVSGSPGKTVTISCAGTSSDVGYGNYVSWYQQLPGMAPKLLIYDVNKRASGIADRFSGSKFANTASLTISGLQSEDEADYYCASYKRGDNAVFGGGTKLTVLG is 7.28e+09

Provenance of the data: patent US11827701B2
